From: PubChem BioAssay AID179

Test system: CEM cells HIV-1 protection, formazan growth assay
protocol-description: NCI AIDS Antiviral Assay;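 active means compounds giving half or more protection of infected cells from virus-caused growth loss, again on retest; inactive means the rest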
Procedure: The ability of compounds to protect human CEM cells from HIV-1 infection is measured as a screen for new compounds capable of inhibiting the HIV virus. Five concentrations of drug were tested on uninfected and infected cells and cell growth was measured using a soluble formazan assay. […] Compounds that provided at least 50% protection were retested. Compounds that provided at least 50% protection on retest were listed as moderately active. […]
Return exactly one item of active, inactive

Q. Look up the recorded call for N/N=C(\C(=O)Nc1ccc(Cl)cc1Cl)C(c1cnc2ccccc2n1)[N+](=O)[O-] (stereo not drawn) in this test.
A. inactive

Further cases:
Q. Look up the recorded call for CCOC(=O)c1c(SC(=O)/C=C/c2ccccc2)n(-c2ccccc2)c(=S)n(-c2ccccc2)c1=O in this test.
A. inactive

Q. Look up the recorded call for CN1c2ccccc2N(C(=O)c2ccccc2)C(CC(=O)O)c2cccn21 (stereo not drawn) in this test.
A. inactive

Q. Look up the recorded call for COc1cc2c(cc1OC)C(=O)c1nccc3ccc(OC)c(c13)O2 in this test.
A. active

Q. Look up the recorded call for O=C(Cn1c(=O)oc2ccc(C(=O)c3ccc(F)cc3)cc21)c1ccccc1 in this test.
A. inactive

Q. Look up the recorded call for Cc1ccc(/C([O-])=C(\C(=S)Nc2cccc(Cl)c2)[n+]2ccccc2)cc1 in this test.
A. inactive

Q. Look up the recorded call for C=C1[C@H](O)[C@@]2(C(=O)N1OC)/C(=C/CC)C=CC(=O)C2O (stereo partly drawn) in this test.
A. inactive

Q. Look up the recorded call for O=C1OCC(O)=C1C(c1ccc(Cl)cc1)c1cc2c(cc1O)OCO2 (stereo not drawn) in this test.
A. inactive

Q. Look up the recorded call for Cc1ccc2c(c1)sc1n[nH]c(=S)n12 in this test.
A. inactive

====

System: CEM cells HIV-1 protection, formazan growth assay
protocol-description: NCI AIDS Antiviral Assay
setup-conditions: measured here: growth of uninfected CEM cells
Method: The ability of compounds to protect human CEM cells from HIV-1 infection is measured as a screen for new compounds capable of inhibiting the HIV virus. Five concentrations of drug were tested on uninfected and infected cells and cell growth was measured using a soluble formazan assay. […] Compounds that provided at least 50% protection were retested. Compounds that provided at least 50% protection on retest were listed as moderately active. […]
This section presents molecules with their documented IC50 values.
Express it in µM; write the number only.

Use the examples below as a reference point.
Q. // map COC(=O)C(Cc1nc2ccccc2[nH]c1=O)C(=O)C(=O)Nc1ccc(F)cc1 (stereo not given) to recorded IC50 (system: CEM cells HIV-1 protection, formazan growth assay)
A. 16.2

Q. // map CCOC(=O)C1c2[nH]c3ccccc3c2CCN1C(=O)c1ccc(OC)o1 (stereo not given) to recorded IC50 (system: CEM cells HIV-1 protection, formazan growth assay)
A. 38.9

Further cases:
Q. // map C=C1[C@H](O)[C@@]2(C(=O)N1OC)/C(=C/CC)C=CC(=O)C2O (stereo not given in full) to recorded IC50 (system: CEM cells HIV-1 protection, formazan growth assay)
A. 331

====

This section presents compounds with their documented EC50 values.
Tested on: CEM cells HIV-1 protection, formazan growth assay
protocol-description: NCI AIDS Antiviral Assay

Q. Form field: reported EC50 of CCOC(=O)c1nnc(-c2ccccc2)nc1Cl
A. > 200 µM

Further cases:
Q. Form field: reported EC50 of Cc1[nH]c(-c2ccccc2)c2nc(N(C)C)oc(=O)c12
A. > 200 µM

Q. Form field: reported EC50 of O=c1c2ccccc2nc(-c2ccccc2)n1NC(=S)Nc1ccccc1
A. > 135 µM

Q. Form field: reported EC50 of CCC1=NC(C(F)(F)F)(C(F)(F)F)N=C(N2CCOCC2)O1
A. > 200 µM

Q. Form field: reported EC50 of NC(=O)c1ccccc1NC(=O)C(=O)C(c1cnc2ccc([N+](=O)[O-])cc2n1)[N+](=O)[O-] (stereo not given)
A. > 61.7 µM
